Just for reference, paper PMC9482650 is where these values come from.

tgt: NHERF4_1, Q86UT5-2
Sequence (Q86UT5 other isoform, or with tags, fused parts or gaps): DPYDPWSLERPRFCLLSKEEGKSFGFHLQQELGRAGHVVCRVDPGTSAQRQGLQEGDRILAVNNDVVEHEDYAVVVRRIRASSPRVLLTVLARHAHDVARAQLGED
experimental.protocol: holdup assay
Set-up: key: below the threshold = too weak to quantify, mostly under pKd 3.1 to 4
stated.conditions: plain residues with an end cap or a label only (N-terminal biotin on a linker: ttds)
quantity: pKd

Q: pKd lookup needed for QRQARSETLV [HPV59-E6, Q81964] , thanks.
Result: below the threshold

Q: I'd like to know its pKd. The binder in question is EMDRRPATVV [PLCB4, Q15147]
Result: below the threshold

Q: Give its pKd value. Item: RPLPRKVSQL [DOCK4, Q8N1I0]
Result: 4.32

Q: Which pKd reading was recorded for the binder NDPAWDETNL [ARHGEF7, Q14155;Q14155-1] ?
Result: below the threshold

Q: Data request, read-out pKd, for RLPKIKETTV [FRMPD4, Q14CM0]
Result: below the threshold

Hey, quick one: what's pKd for each of these?
1. KKYVDAETSL [SLC4A7, Q9Y6M7]
2. VDFPPKESSL [ACVR2A, P27037]
3. SSLQSLETSV [ATP2B4, P23634]
4. RHTTSTETAV [HPV30-E6, P36809]

Result:
3.49
3.35
below the threshold
below the threshold
